B1: Transcription elongation factor A N-terminal and central domain-containing protein, residues 30 to 77; numbered along this chain, Q8N8B7 (parent)
chain: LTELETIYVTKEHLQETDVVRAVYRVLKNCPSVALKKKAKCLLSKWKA

Variants of: B1
Assay: abundance fitness (aPCA) (normalised: wild type 0, dead -1); higher = more abundant; growth selection in yeast, the domain comes from the species named
Conditions: Homo sapiens
Output Y for abundance fitness not less than -0.004; output N otherwise.

Below are worked cases with known answers.
INPUT: Check this variant for abundance fitness at or above -0.004: LTGLETIYVTKEHLQETDVVRAVYRVLKNCPSVALKKKAKCLLSKWKA [E3G]
OUTPUT: N

INPUT: Check this variant for abundance fitness at or above -0.004: LTELETIYVTKEHLQETDVLRAVYRVLKNCPSVALKKKAKCLLSKWKA [V20L]
OUTPUT: Y

INPUT: Check this variant for abundance fitness at or above -0.004: LTELETIYVTKEHLQETDVVRAVYRFLKNCPSVALKKKAKCLLSKWKA [V26F]
OUTPUT: Y

INPUT: Check this variant for abundance fitness at or above -0.004: LTELETIYVTKEHLQETDVVRAVYRVLKECPSVALKKKAKCLLSKWKA [N29E]
OUTPUT: N

***
INPUT: Check this variant for abundance fitness at or above -0.004: LTELETIYVTKEHLQETDVVRAVYRVLKNCASVALKKKAKCLLSKWKA [P31A]
OUTPUT: Y

INPUT: Check this variant for abundance fitness at or above -0.004: LTELETIYVTKEHEQETDVVRAVYRVLKNCPSVALKKKAKCLLSKWKA [L14E]
OUTPUT: Y
